assayed_target: T1, soluble human BLyS (human, UniProt Q9Y275 134-285)
T1 construct: also called hBLyS; human BAFF (BLyS)
measurement_notes: Biacore, antibody captured on chip, BLyS injected, 1:1 model, 25 C
parameter: kon (M⁻¹ s⁻¹)
Respond numerically; units are M⁻¹ s⁻¹ and should not be typed.

Previously resolved entries follow.
[
  {
    "binder": "8D12 IgG1 F243A/V264A double mutein expressed in Pichia pastoris (antibody, V domains shown, IgG1 F243A/V264A (EU) double mutein, alpha-2,6-sialylated, from glycoengineered Pichia pastoris; also called 8D12-DM; 8D12-DM (Pichia)) VH: QVQLVQSGAEVKKPGASVKVSCKASGYTFTSYAMHWVRQAPGQRLEWMGWINAGNGNTKYSQKFQGRVTITRDTSASTAYMELSSLRSEDTAVYYCARAYYDILTGYSVYGMDVWGQGTTVTVSS VL: EIVLTQSPATLSLSPGERATLSCRANESVGNYLAWYQQKPGQAPRLLIYGASRRATGIPDRFSGSGSGTDFTLTISRLEPEDFAVYYCQQYGSSLLTFGGGTKVEIKR",
    "unit_abbrev": "M⁻¹ s⁻¹",
    "kon": 260000
  },
  {
    "binder": "5B7 IgG expressed in HEK293 cells (antibody, V domains shown, also called 5B7 (293); 5B7-HEK293) VH: QVQLVQSGAEVKKPGASVKVSCKASGGTFSSYAISWVRQAPGQGLEWMGGIIPIFGTANYAQKFQGRVTITADKSTSTAYMELSSLRSEDTAVYYCARVDYDILTGYYMGYFDYWGQGTLVTVSS VL: DIVMTQSPATLSLSPGERATLSCRASQSVSSYLAWYQQKPGQAPRLLIYDASNRATGIPARFSGSGSGTDFTLTISSLEPEDFAVYYCQQRSNWPITFGQGTRLEIKR",
    "unit_abbrev": "M⁻¹ s⁻¹",
    "kon": 190000
  }
]

Please indicate kon recorded for 5B7 IgG1 F243A/V264A double mutein expressed in Pichia pastoris (antibody, V domains shown, IgG1 F243A/V264A (EU) double mutein, alpha-2,6-sialylated, from glycoengineered Pichia pastoris; also called 5B7-DM; 5B7-DM Pichia) VH: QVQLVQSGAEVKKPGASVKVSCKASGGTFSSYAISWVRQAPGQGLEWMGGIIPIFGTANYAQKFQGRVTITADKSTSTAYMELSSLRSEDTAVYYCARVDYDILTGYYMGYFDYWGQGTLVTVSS VL: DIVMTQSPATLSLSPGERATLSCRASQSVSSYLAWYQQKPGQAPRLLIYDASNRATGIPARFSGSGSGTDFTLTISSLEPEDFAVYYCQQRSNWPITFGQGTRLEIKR
190000

Determine its reported kon: 6C10 IgG expressed in HEK293 cells (antibody, V domains shown, IgG from HEK293-FreeStyle cells; also called 6C10 (293)) VH: EVQLVQSGAEVKKPGASVKVSCKASGYTFTSYGISWVRQAPGQGLEWMGWISAYNGNTNYAQKLQGRVTMTTDTSTSTAYMELRSLRSDDTAVYYCARTYYDILTGYYYYYGMDVWGQGTTVTVSS VL: EIVLTQSPGTLSLSPGERAMLSCRASQSVGNYLAWYQQKPGQAPRLLIYDASNRATGIPARFSGSGSGTDFTLTINSLEPEDFAVYYCQQRSNWPLTFGGGTKVEIKR
120000

Please indicate kon recorded for 6C10 IgG1 F243A/V264A double mutein expressed in Pichia pastoris (antibody, V domains shown, IgG1 F243A/V264A (EU) double mutein, alpha-2,6-sialylated, from glycoengineered Pichia pastoris; also called 6C10-DM; 6C10-DM (Pichia)) VH: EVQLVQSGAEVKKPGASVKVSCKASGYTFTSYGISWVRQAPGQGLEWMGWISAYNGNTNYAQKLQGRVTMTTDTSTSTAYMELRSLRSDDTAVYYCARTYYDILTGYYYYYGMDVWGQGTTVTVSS VL: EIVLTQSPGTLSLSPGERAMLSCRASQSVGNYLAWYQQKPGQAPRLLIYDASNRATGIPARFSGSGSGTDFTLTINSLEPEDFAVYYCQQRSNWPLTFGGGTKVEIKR
130000

Values compiled from patent US20170101466A1.
